# target.of.assay: T1, Human CD137 ECD (human)
# T1 construct: also called 4-1BB
# measurement.protocol: single mutant vs template dBBDu183H
Classify: y when fold change of affinity is strictly less than 0.1 fold; n when fold change of affinity is not.

Asked: Hi there! Is fold change of affinity for H183/L072 VH I51S (antibody, name in Kabat numbering, V domains shown) VH: QVQLVESGGGLVQPGRSLRLSCAASGFTFSNAWMHWVRQAPGKGLEWVAQSKDKGNAYAAYYAPSVKGRFTISRDDSKNSIYLQMNSLKTEDTAVYYCHYVHYASASTVLPAFGVDAWGQGTTVTVSS VL: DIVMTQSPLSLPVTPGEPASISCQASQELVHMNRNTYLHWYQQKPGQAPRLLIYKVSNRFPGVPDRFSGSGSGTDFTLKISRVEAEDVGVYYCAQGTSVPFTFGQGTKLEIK below 0.1 fold, do you know?
Given back: n

Asked: Hi there! Is fold change of affinity for H183/L072 VH S30W (antibody, name in Kabat numbering, V domains shown) VH: QVQLVESGGGLVQPGRSLRLSCAASGFTFWNAWMHWVRQAPGKGLEWVAQIKDKGNAYAAYYAPSVKGRFTISRDDSKNSIYLQMNSLKTEDTAVYYCHYVHYASASTVLPAFGVDAWGQGTTVTVSS VL: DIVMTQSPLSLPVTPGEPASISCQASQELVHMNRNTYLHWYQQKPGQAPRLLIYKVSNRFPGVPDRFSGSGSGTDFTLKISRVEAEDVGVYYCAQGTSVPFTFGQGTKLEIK below 0.1 fold, do you know?
Given back: n

Asked: Hi there! Is fold change of affinity for H183/L072 VH W33Y (antibody, name in Kabat numbering, V domains shown) VH: QVQLVESGGGLVQPGRSLRLSCAASGFTFSNAYMHWVRQAPGKGLEWVAQIKDKGNAYAAYYAPSVKGRFTISRDDSKNSIYLQMNSLKTEDTAVYYCHYVHYASASTVLPAFGVDAWGQGTTVTVSS VL: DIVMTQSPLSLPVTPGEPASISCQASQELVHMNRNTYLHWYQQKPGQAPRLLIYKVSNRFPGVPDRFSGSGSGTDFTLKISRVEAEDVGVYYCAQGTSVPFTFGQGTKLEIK below 0.1 fold, do you know?
Given back: y

Asked: Hi there! Is fold change of affinity for H183/L072 VH Y94I (antibody, name in Kabat numbering, V domains shown) VH: QVQLVESGGGLVQPGRSLRLSCAASGFTFSNAWMHWVRQAPGKGLEWVAQIKDKGNAYAAYYAPSVKGRFTISRDDSKNSIYLQMNSLKTEDTAVYYCHIVHYASASTVLPAFGVDAWGQGTTVTVSS VL: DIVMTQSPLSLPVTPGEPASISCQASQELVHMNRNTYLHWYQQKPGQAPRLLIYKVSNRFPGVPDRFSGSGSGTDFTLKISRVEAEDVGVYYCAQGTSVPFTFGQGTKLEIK below 0.1 fold, do you know?
Given back: y

Asked: Hi there! Is fold change of affinity for H183/L072 VH Y58R (antibody, name in Kabat numbering, V domains shown) VH: QVQLVESGGGLVQPGRSLRLSCAASGFTFSNAWMHWVRQAPGKGLEWVAQIKDKGNAYAARYAPSVKGRFTISRDDSKNSIYLQMNSLKTEDTAVYYCHYVHYASASTVLPAFGVDAWGQGTTVTVSS VL: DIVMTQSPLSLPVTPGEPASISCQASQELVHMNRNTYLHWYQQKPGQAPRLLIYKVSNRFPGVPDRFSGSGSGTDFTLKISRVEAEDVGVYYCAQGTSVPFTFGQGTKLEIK below 0.1 fold, do you know?
Given back: n

Asked: Hi there! Is fold change of affinity for H183/L072 VH A56N (antibody, name in Kabat numbering, V domains shown) VH: QVQLVESGGGLVQPGRSLRLSCAASGFTFSNAWMHWVRQAPGKGLEWVAQIKDKGNAYNAYYAPSVKGRFTISRDDSKNSIYLQMNSLKTEDTAVYYCHYVHYASASTVLPAFGVDAWGQGTTVTVSS VL: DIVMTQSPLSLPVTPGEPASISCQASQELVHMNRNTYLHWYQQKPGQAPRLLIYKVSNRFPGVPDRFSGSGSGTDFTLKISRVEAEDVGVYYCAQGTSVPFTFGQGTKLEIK below 0.1 fold, do you know?
Given back: n

Asked: Hi there! Is fold change of affinity for H183/L072 VH S30T (antibody, name in Kabat numbering, V domains shown) VH: QVQLVESGGGLVQPGRSLRLSCAASGFTFTNAWMHWVRQAPGKGLEWVAQIKDKGNAYAAYYAPSVKGRFTISRDDSKNSIYLQMNSLKTEDTAVYYCHYVHYASASTVLPAFGVDAWGQGTTVTVSS VL: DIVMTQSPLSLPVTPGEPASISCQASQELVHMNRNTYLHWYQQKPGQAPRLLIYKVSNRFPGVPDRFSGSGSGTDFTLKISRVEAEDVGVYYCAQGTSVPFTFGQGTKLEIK below 0.1 fold, do you know?
Given back: n

Asked: Hi there! Is fold change of affinity for H183/L072 VH V63P (antibody, name in Kabat numbering, V domains shown) VH: QVQLVESGGGLVQPGRSLRLSCAASGFTFSNAWMHWVRQAPGKGLEWVAQIKDKGNAYAAYYAPSPKGRFTISRDDSKNSIYLQMNSLKTEDTAVYYCHYVHYASASTVLPAFGVDAWGQGTTVTVSS VL: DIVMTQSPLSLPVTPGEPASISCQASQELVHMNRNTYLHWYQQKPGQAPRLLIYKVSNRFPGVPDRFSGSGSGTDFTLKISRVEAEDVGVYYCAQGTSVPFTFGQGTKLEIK below 0.1 fold, do you know?
Given back: n

Asked: Hi there! Is fold change of affinity for H183/L072 VH Y94L (antibody, name in Kabat numbering, V domains shown) VH: QVQLVESGGGLVQPGRSLRLSCAASGFTFSNAWMHWVRQAPGKGLEWVAQIKDKGNAYAAYYAPSVKGRFTISRDDSKNSIYLQMNSLKTEDTAVYYCHLVHYASASTVLPAFGVDAWGQGTTVTVSS VL: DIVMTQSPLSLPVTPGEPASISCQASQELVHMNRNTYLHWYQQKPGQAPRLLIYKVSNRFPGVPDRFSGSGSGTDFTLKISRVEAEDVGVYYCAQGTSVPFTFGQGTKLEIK below 0.1 fold, do you know?
Given back: y
